# Tested on: anti-quadruplex monoclonal autoantibody me^v-alphaQ1 (Mus musculus)
# Run Description: filter
# Run Parameters: RIFB, Scatchard; TEP buffer 150 mM KCl, 37 C; Ka 6.8e5 M^-1
Reported Property: Kd (nM)
Report the figure in nM without appending any unit label.

What value of measured Kd is listed for GGGGTTTGGGGTTTCCCC [d(G4T3G4T3C4) triplex] ?
1500

----------
# Test system: anti-quadruplex monoclonal autoantibody me^v-alphaQ1 (Mus musculus)
# Run Description: FP filter
# Run Parameters: nitrocellulose filter binding (RIFB), Scatchard; TEP buffer 50 mM Tris pH 7.4, 5 mM EDTA, 150 mM KCl, 37 C; Ka 2.7e6 M^-1 in table (text prints 2.7e5)
Reported Property: Kd (nM)
Report the figure in nM without appending any unit label.

Item: TTGGGGTTGGGGTTGGGGTTGGGG [(TET4)4 quadruplex] Test system: anti-quadruplex monoclonal autoantibody me^v-alphaQ1 (Mus musculus) Read-out: Kd Value: ?
370
